target: Receptor-type tyrosine-protein kinase FLT3 (Homo sapiens, UniProt P36888, ITD); assay: Inhibition of FLT3/ITD mutant phosphorylation in human MV4-11 cells after 1 hr by Western blot analysis; assay type: cell-based
Sequence (P36888 whole entry, looked up, change not shown): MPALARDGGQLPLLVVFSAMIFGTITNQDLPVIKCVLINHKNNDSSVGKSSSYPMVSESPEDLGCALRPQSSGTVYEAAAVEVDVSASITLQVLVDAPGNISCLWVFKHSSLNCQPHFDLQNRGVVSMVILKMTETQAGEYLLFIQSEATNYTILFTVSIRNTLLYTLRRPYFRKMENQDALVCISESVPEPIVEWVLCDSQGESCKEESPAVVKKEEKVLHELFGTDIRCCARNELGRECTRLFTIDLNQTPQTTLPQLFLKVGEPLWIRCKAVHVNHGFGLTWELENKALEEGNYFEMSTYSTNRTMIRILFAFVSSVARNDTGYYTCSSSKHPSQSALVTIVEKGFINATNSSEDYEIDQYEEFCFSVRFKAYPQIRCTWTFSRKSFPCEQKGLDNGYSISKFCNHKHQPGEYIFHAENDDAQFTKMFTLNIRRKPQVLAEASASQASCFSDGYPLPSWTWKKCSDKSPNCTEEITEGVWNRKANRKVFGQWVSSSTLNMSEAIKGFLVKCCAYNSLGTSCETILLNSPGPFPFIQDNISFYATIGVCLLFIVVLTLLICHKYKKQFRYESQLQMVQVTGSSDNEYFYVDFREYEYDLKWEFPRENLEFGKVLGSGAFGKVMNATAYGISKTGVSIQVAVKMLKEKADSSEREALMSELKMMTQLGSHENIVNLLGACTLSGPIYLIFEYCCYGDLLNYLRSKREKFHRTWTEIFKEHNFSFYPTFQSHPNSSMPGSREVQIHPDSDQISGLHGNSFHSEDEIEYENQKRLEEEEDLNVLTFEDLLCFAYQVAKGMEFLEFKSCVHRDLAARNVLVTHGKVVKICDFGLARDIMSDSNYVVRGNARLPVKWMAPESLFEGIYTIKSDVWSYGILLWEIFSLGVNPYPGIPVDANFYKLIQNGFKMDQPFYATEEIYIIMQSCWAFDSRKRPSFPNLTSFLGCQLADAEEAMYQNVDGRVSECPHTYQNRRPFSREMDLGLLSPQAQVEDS
pIC50: −log10 of the molar value.
measured.metric: pIC50

- line.notation: "CC(C)(C)c1cc(NC(=O)NCc2ccc(-c3cc(NC(=O)c4ccc(OCCN5CCOCC5)cc4)[nH]n3)cc2)no1"
  endpoint.result: 9.00

###

molecular target: UniProt:P35968; assay: biochemical
Sequence (P35968 whole entry): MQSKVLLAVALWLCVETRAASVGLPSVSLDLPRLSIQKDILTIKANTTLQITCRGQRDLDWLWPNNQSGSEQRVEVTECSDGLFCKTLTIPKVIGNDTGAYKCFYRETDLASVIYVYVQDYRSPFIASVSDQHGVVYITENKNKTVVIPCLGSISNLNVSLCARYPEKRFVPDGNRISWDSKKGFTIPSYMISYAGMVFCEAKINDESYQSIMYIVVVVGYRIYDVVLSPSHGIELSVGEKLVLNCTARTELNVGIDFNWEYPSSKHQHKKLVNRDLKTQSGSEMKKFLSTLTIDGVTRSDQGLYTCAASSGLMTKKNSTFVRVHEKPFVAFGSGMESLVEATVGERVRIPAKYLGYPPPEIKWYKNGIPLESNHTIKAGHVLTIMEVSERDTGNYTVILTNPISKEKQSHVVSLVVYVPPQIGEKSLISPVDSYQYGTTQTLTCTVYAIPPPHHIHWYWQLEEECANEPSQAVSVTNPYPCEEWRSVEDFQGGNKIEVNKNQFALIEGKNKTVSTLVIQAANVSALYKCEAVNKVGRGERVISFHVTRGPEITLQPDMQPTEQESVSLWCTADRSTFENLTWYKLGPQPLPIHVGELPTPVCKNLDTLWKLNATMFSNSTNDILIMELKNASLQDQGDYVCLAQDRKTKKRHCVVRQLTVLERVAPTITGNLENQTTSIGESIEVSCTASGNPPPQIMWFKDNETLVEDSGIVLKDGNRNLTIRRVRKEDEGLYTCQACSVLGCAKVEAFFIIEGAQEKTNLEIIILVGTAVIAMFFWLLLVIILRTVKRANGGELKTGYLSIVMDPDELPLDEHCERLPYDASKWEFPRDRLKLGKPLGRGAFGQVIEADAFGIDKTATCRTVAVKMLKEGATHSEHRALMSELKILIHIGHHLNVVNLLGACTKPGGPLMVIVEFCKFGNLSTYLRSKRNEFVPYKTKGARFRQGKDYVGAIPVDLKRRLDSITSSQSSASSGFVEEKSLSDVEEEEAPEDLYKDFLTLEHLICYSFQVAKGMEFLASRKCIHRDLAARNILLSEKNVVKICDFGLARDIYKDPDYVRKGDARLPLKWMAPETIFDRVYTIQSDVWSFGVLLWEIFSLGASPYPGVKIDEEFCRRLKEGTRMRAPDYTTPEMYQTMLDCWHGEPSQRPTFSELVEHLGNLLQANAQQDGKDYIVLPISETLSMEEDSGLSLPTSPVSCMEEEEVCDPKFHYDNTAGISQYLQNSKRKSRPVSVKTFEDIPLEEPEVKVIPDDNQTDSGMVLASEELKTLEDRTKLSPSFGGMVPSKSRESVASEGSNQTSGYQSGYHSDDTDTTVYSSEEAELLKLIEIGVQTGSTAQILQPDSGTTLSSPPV
Description: Inhibition of recombinant GST tagged VEGFR2 (789 to 1356) (unknown origin) transfected in insect sf9 cells after 120 mins by wallac counting analysis
// NB: equality with 30 nM counts as NOT MET; only IC50 strictly below is MET

- line.notation: "Cc1nc(Nc2cc(-c3ccc(CNC(=O)Nc4cc(C)on4)cc3)n[nH]2)cc(N2CCN(CCO)CC2)n1"
  target.entity: "UniProt:P35968"
  label: "NOT MET"
- line.notation: "O=C(NCc1ccc(-c2cc(NC(=O)c3ccc(OCCN4CCOCC4)cc3)[nH]n2)cc1)Nc1ccc(F)cc1"
  target.entity: "UniProt:P35968"
  label: "NOT MET"
- line.notation: "Cc1cc(NC(=O)Nc2ccc(-c3cc(NC(=O)c4ccc(N5CCN(C)CC5)cc4)[nH]n3)cc2Cl)no1"
  target.entity: "UniProt:P35968"
  label: "NOT MET"
- line.notation: "O=C(NCc1ccc(-c2cc(NC(=O)c3ccc(OCCN4CCOCC4)cc3)[nH]n2)cc1)Nc1ccccc1"
  target.entity: "UniProt:P35968"
  label: "NOT MET"
- line.notation: "Cc1nc(Nc2cc(-c3ccc(CNC(=O)Nc4cc(C(C)(C)C)on4)cc3)n[nH]2)cc(N2CCNCC2)n1"
  target.entity: "UniProt:P35968"
  label: "NOT MET"
- line.notation: "Cc1cc(NC(=O)Nc2ccc(-c3cc(NC(=O)c4ccc(N5CCN(C)CC5)cc4)[nH]n3)cc2C)no1"
  target.entity: "UniProt:P35968"
  label: "NOT MET"
- line.notation: "CC(C)(C)c1cc(NC(=O)NCc2ccc(-c3cc(NC(=O)c4ccc(OCCN5CCOCC5)cc4)[nH]n3)cc2)no1"
  target.entity: "UniProt:P35968"
  label: "MET"
- line.notation: "Cc1cc(-c2cc(NC(=O)c3ccc(OCCN4CCOCC4)cc3)[nH]n2)ccc1NC(=O)Nc1cc(C(C)(C)C)on1"
  target.entity: "UniProt:P35968"
  label: "MET"
- line.notation: "Cc1nc(Nc2cc(-c3ccc(CNC(=O)Nc4cc(C)on4)cc3)n[nH]2)cc(N2CCN(C)CC2)n1"
  target.entity: "UniProt:P35968"
  label: "NOT MET"
- line.notation: "CC(C)(C)c1cc(NC(=O)Nc2ccc(-c3cc(NC(=O)c4ccc(OCCN5CCCC5)cc4)[nH]n3)cc2)no1"
  target.entity: "UniProt:P35968"
  label: "MET"
- line.notation: "CN1CCN(c2ccc(C(=O)Nc3cc(-c4ccc(NC(=O)Nc5ccccn5)cc4)n[nH]3)cc2)CC1"
  target.entity: "UniProt:P35968"
  label: "NOT MET"
- line.notation: "CN1CCN(c2ccc(C(=O)Nc3cc(-c4ccc(NC(=O)Nc5cccnc5)cc4)n[nH]3)cc2)CC1"
  target.entity: "UniProt:P35968"
  label: "NOT MET"
- line.notation: "CN1CCN(Cc2ccc(C(=O)Nc3cc(-c4ccc(CNC(=O)Nc5cc(C(C)(C)C)on5)cc4)n[nH]3)cc2)CC1"
  target.entity: "UniProt:P35968"
  label: "MET"
- line.notation: "CN1CCN(c2ccc(C(=O)Nc3cc(-c4ccc(NC(=O)N5CCCC5)cc4)n[nH]3)cc2)CC1"
  target.entity: "UniProt:P35968"
  label: "NOT MET"
- line.notation: "CN1CCN(Cc2ccc(C(=O)Nc3cc(-c4ccc(NC(=O)Nc5cc(C(C)(C)C)on5)cc4)n[nH]3)cc2)CC1"
  target.entity: "UniProt:P35968"
  label: "MET"
- line.notation: "Cc1cnc(NC(=O)Nc2ccc(-c3cc(NC(=O)c4ccc(N5CCN(C)CC5)cc4)[nH]n3)cc2)s1"
  target.entity: "UniProt:P35968"
  label: "NOT MET"

All figures here come from ChEMBL document CHEMBL2384934.
